All values here come from PubChem BioAssay (NCI).

Test system: HCC-2998 colon
method description: NCI-60 one-dose screen, 48 h
condition parameters: 10 µM unless noted
The panel holds about 83,000 compounds, 20% with a hit somewhere; the sample as a whole holds those more often. Activity calls are given as the source filed them. Rule for the calls: active = growth percent below 10; inactive = the rest.
Assign a class; possible classes are active, inactive

Q: Each molecule tested received a call. Report the one for Cn1cc(-c2csc(-c3cn(CCN)c4ccccc34)n2)c2cccnc21 .
Ans: inactive

Q: Each molecule tested received a call. Report the one for COC(=O)[C@]12CC[C@@H](C)[C@H](C)[C@@H]1C1=CC[C@@H]3[C@@]4(C)CC(=O)[C@H](OC(=O)c5ccco5)[C@@]5(C)COC(=C45)C[C@@]3(C)[C@]1(C)CC2 .
Ans: inactive

Q: Each molecule tested received a call. Report the one for CN(C)CCCCC(C(=O)CBr)(c1ccccc1)c1ccccc1 .
Ans: inactive

Q: Each molecule tested received a call. Report the one for COc1ccc(C(=O)/C=C/c2cc(-c3cc(OC)c(OC)c(OC)c3)n[nH]2)cc1OC .
Ans: active
